tested on: MS2 coat protein; assay: apparent KD of MS2 coat protein; designed switch direction (-1 OFF switch, 1 ON switch): -1; higher = weaker reporter binding; conditions: input ligand: FMN 200 uM
reported_property: apparent KD of MS2 coat protein (nM)
Reply with just the number (in nM).

Field: example entries. Status: answers known.
{"columns": ["sequence_content", "measured_number"],
 "data": [
  ["GGUAGAGUGGUAGGAUAUCCGUCUGUUUCAGUCGGAGAAGGACCACAGUCACUGGGUCCAUGUUUCAUGGAGACCUGAUCUACC [pwkr exNG1 F6.9] (Eterna round: R96, puzzle: Exclusion NG 1)", 26.9],
  ["UAAUUAAUAAGAUCAAUUAAUUAACAUGAGGAUCACCCAUGUGAGGAUAUCAGCUCGUUUAGAGCUGAGAAGGCACAAUAAUUA [ExNG3/17-C2] (Eterna round: R96, puzzle: Exclusion NG 3)", 72],
  ["CAUAUUGUAGGAUAUAUUCGAAAGGUCCUCUUCCCAUACCGACAUGAGGAUCACCCAUGUAGAAGGAUAGUGCC [Eternabot (L2) Solution 13] (Eterna round: R97, puzzle: Exclusion 2)", 48.9],
  ["UAAUAGAUGGUUAGGAUAUGCUGGCCUAGGCCGCGGCAGAAGGAACAUGAGGAUCACCCAUGUAGUAGGAUCCA [Eternabot (L2) Solution 15] (Eterna round: R97, puzzle: Brourd's mod of Exclusion 4)", 204],
  ["UUACGACAUGAGGAUCACCCAUGUUAGGAUAUGUGGCGAGAGCGCUAGCCUCGGGCCAACAGAAGGAAUAGGGC [Eternabot (L2) Solution 35] (Eterna round: R97, puzzle: Exclusion 1)", 53.4]
]}

CUUAUGUCAGGAUAUGCCUGGCCGUGAGGCCAAAUUGAAUAGCAGAAGGGACAUGAGGAUCACCCAUGUCCGGG [jl-ex4-4.64 ViennaUCT mod] (Eterna round: R97, puzzle: Exclusion 4) has a reported apparent KD of MS2 coat protein of 115

Field apparent KD of MS2 coat protein (entry AAACCUGGAGUUAGGAUAUGAAGUAUCACUGCGCUUCAGAAGGGACUUGAGGAUCACCCAAGUAAAAGUUAAAA [Teredi] (Eterna round: R97, puzzle: Brourd's mod of Exclusion 4) ) reads 20.8

In plain terms, UCCUCACUUGAGGAUCACCCAAGUCAGGAUAUUCACUGAACUGCGUAACAGUUCGGCCGAAGAAGGGAUUCGGG [Veatorma] (Eterna round: R97, puzzle: Exclusion 1) has a documented apparent KD of MS2 coat protein of 259

// field: apparent KD of MS2 coat protein; key: AAAGGAUGCCUAGGAUAUUGACGAAGAAAGGAUUAAGAAGGAGGAAAUAUAUGAGGGAUCCACAUGAGGAUCACCCAUGUACAC [Beveinveor] (Eterna round: R96, puzzle: Exclusion NG 1) ; value = 538

* * *

test system: MS2 coat protein; test: apparent KD of MS2 coat protein; designed switch direction (-1 OFF switch, 1 ON switch): -1; higher = weaker reporter binding; details: Eterna round: R95; input ligand: microRNA oligo, concentration not stated
# apparent KD of MS2 coat protein per record follows
The figure you give is taken to be in nM; do not add the unit.

{"columns": ["sequence_content", "apparent KD of MS2 coat protein, nM"],
 "data": [
  ["GGCAAUAUGUAGGAUAUCGUAAUGGAAACAUUACGAGAAGGGCAAACAUGAGGAUCACCCAUGUUCCUUAAGCC [Mat - Exclusion 6 - Eli Mod - D69] (puzzle: Exclusion 6)", 15],
  ["UCAUGUUAGCAGGAUAUGCUAUUUAUUUUUUAUGCAGAAGGGCUUACAUGAGGAUCACCCAUGUGUUAGGUUUU [JR_E6_Sub073] (puzzle: Exclusion 6)", 29.7]
]}

Value of measured apparent KD of MS2 coat protein for the entry AGUGCUGGCGCGUCGGUGUUGGUACAAUAAGCUUGUGAAACAUGAGGAUCACCCAUGUCCUCAUAAGCUCGUCUUAU [salish99_TOv2_r2_084] (puzzle: Sensor v3, turn-off variant 2) : 553
